# assay-target: KDM4E (Homo sapiens)
# Construct: KDM4DM1-L359,[39]; KDM4EM1-R336,[30]; His6 (N); made in house; host or cells: Escherichia coli
# Sequence (B2RXH2 1-336): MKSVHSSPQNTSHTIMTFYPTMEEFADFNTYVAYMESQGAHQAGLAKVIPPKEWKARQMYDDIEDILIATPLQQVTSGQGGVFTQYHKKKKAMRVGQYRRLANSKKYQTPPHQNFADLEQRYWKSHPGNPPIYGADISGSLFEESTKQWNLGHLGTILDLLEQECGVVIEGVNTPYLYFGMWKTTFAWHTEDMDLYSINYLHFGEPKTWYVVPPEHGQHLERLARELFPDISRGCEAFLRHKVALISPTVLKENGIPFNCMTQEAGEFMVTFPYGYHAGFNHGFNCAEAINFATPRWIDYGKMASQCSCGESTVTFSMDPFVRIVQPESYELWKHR
# test-details: LC-MS demethylation activity assay, KDM4E
# Assay type: biochemical
# study-conditions: 2 μM KDM, 10 μM H1/H3 peptide, 10 μM FAS, 100 μM LAA, 20 μM 2OG, 50 mM HEPES pH 7.5, 2 h, room temperature, T (tri-) initial methylation state
# Description: The substrate specificity of JmjC KDMs for H1 was examined using liquid chromatography coupled to mass spectrometry (LC-MS) assays. The H1 peptides (10 μM) were incubated with the recombinant KDM (2 μM) in HEPES buffer at pH 7.5 at room temperature for 2 h, in the presence of ferrous(II) ammonium sulfate (FAS, 10 μM), sodium ascorbate (LAA, 100 μM) and 2OG (20 μM), and then quenched with formic acid. […]
Square brackets hold non-standard residues; d marks the D form. Ends that are not written are not given here. Lys(Me3) = C[N+](C)(C)CCCC[C@H](N)C(=O)O
readout-label: KDM4E demethylation activity, T

KKKAT[Lys(Me3)]KAAGAGAAK [Peptide H1.5K25me3, 15-mer linker histone H1.5 residues 20-34 peptide, tri-methylated K25]	● [red]
KKKAA[Lys(Me3)]KAGGTPRKA [Peptide H1.2K25me3, 15-mer linker histone H1.2 residues 20-34 peptide, tri-methylated K25]	● [red]
KKKAR[Lys(Me3)]SAGAAKRKA [Peptide H1.4K25me3, 15-mer linker histone H1.4 residues 20-34 peptide, tri-methylated K25]	● [red]
